Assay: In vivo pharmacokinetic time profile in rats (plasma and brain)
Details: male, Sprague Dawley, plasma, 30 mg/mg; rat, SC administration, dose 30 (mg/mg [sic]); read-out: T½ (converted)

- COMPOUND: "Cc1ccc(S(=O)(=O)n2ccc(C(=O)NCc3ncco3)c2)cc1 [Compound 86]"
  half-life / min: 24

----------
Parameter Threshold Shift: see the listing below.
Biological target: hKv3.1b (Homo sapiens, UniProt P48547)
Construct: expressed in transfected cells
Sequence (P48547 1-585 isoform P48547-2): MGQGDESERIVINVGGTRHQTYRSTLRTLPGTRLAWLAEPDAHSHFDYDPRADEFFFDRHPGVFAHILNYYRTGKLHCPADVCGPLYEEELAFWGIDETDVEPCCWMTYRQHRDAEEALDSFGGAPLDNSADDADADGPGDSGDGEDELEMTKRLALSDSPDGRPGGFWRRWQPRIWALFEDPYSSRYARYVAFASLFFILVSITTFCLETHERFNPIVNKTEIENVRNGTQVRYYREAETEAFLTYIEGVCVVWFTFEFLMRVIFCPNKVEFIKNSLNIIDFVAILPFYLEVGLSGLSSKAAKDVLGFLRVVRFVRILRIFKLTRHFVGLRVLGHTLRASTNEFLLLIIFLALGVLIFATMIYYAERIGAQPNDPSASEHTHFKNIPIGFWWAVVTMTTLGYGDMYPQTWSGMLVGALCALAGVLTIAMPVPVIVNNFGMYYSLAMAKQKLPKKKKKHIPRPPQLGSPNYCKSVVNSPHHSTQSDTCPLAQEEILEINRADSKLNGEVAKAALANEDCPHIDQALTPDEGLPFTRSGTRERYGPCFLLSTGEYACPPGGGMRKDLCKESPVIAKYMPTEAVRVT
Experiment: Automated patch clamp (QPatch-16x) on HEK-293 cells stably expressing hKv3.1b
Format: cell-based
Settings: maximum absolute hyperpolarizing shift of activation threshold at tested concentrations 0.37-30 μM

- MOLECULE: "Cc1cnc(CNC(=O)c2ccn(S(=O)(=O)c3ccccc3C)c2)o1 [Compound 80]"
  Threshold Shift / mV: 12
- MOLECULE: "Cc1cnc(CNC(=O)c2ccn(S(=O)(=O)c3ccccc3)c2)cn1 [Compound 48]"
  Threshold Shift / mV: 18
- MOLECULE: "Cc1ccc(S(=O)(=O)n2ccc(C(=O)NCc3cc(C)on3)c2)cc1 [Compound 32]"
  Threshold Shift / mV: 16
- MOLECULE: "Cc1ccc(S(=O)(=O)n2ccc(C(=O)NCc3cnc(Cl)cn3)c2)cc1 [Compound 89]"
  Threshold Shift / mV: 23
- MOLECULE: "Cc1cnc(CNC(=O)c2ccn(S(=O)(=O)c3ccc(F)c(Cl)c3)c2)cn1 [Compound 92]"
  Threshold Shift / mV: 12
- MOLECULE: "Cc1ccc(S(=O)(=O)n2ccc(C(=O)NCc3cc(C)ccn3)c2)cc1 [Compound 16]"
  Threshold Shift / mV: 16
- MOLECULE: "Cc1ccc(S(=O)(=O)n2ccc(C(=O)NCc3coc(C)n3)c2)cc1 [Compound 47]"
  Threshold Shift / mV: 12
- MOLECULE: "Cc1ccc(S(=O)(=O)n2ccc(C(=O)NCc3cc(F)ccn3)c2)cc1 [Compound 12]"
  Threshold Shift / mV: 16
- MOLECULE: "Cc1cnc(CNC(=O)c2ccn(S(=O)(=O)c3ccc(F)c(C)c3)c2)cn1 [Compound 101]"
  Threshold Shift / mV: 23

----------
Target: hKv3.1b (Homo sapiens)
Construct: expressed in transfected cells
Test: Automated patch clamp (QPatch-16x) on HEK-293 cells stably expressing hKv3.1b
Format: cell-based
Details: concentration needed to shift the activation threshold 5 mV
Parameter ECdelta5 mV: see the listing below.
QUANTITY KIND: ECdelta5 mV (nM)

- MOLECULE: "Cc1ccc(S(=O)(=O)n2ccc(C(=O)NCc3nnc(C)s3)c2)cc1 [Compound 115]"
  QUANTITY KIND: "ECdelta5 mV"
  UNIT: "nM"
  NUMERIC RESULT: 2800
- MOLECULE: "Cc1ccc(S(=O)(=O)n2cc(C)c(C(=O)NCc3cnc(C)cn3)c2)cc1 [Compound 8]"
  QUANTITY KIND: "ECdelta5 mV"
  UNIT: "nM"
  NUMERIC RESULT: 4000
- MOLECULE: "COc1ccc(S(=O)(=O)n2ccc(C(=O)NCc3ccn(C)n3)c2)cc1 [Compound 66]"
  QUANTITY KIND: "ECdelta5 mV"
  UNIT: "nM"
  NUMERIC RESULT: 1400
- MOLECULE: "Cc1ccc(S(=O)(=O)n2ccc(C(=O)NCc3ncccc3C)c2)cc1 [Compound 17]"
  QUANTITY KIND: "ECdelta5 mV"
  UNIT: "nM"
  NUMERIC RESULT: 2300
- MOLECULE: "Cc1cnc(CNC(=O)c2ccn(S(=O)(=O)c3ccc4c(c3)CCO4)c2)cn1 [Compound 102]"
  QUANTITY KIND: "ECdelta5 mV"
  UNIT: "nM"
  NUMERIC RESULT: 1400
- MOLECULE: "COc1ccnc(CNC(=O)c2ccn(S(=O)(=O)c3ccc(C)cc3)c2)c1 [Compound 19]"
  QUANTITY KIND: "ECdelta5 mV"
  UNIT: "nM"
  NUMERIC RESULT: 2100
- MOLECULE: "COc1ccc(S(=O)(=O)n2ccc(C(=O)NCc3cnc(C)cn3)c2)cc1 [Compound 7]"
  QUANTITY KIND: "ECdelta5 mV"
  UNIT: "nM"
  NUMERIC RESULT: 1300
- MOLECULE: "O=C(NCc1cnccn1)c1ccn(S(=O)(=O)c2ccccc2F)c1 [Compound 59]"
  QUANTITY KIND: "ECdelta5 mV"
  UNIT: "nM"
  NUMERIC RESULT: 2000
- MOLECULE: "COc1ncc(CNC(=O)c2ccn(S(=O)(=O)c3ccc(OC(F)F)cc3)c2)cn1 [Compound 112]"
  QUANTITY KIND: "ECdelta5 mV"
  UNIT: "nM"
  NUMERIC RESULT: 4100

----------
Experiment: In vivo pharmacokinetic time profile in mice (plasma and brain)
Parameters: species or system mouse
Conditions: male, C57, plasma; mouse, SC administration, dose 3 (mg/mg) (Table 7); read-out: T½ (converted)
QUANTITY KIND: half-life

- COMPOUND: "Cc1ccc(S(=O)(=O)n2ccc(C(=O)NCc3ncco3)c2)cc1 [Compound 86]"
  RESULT: "42 min"

----------
Experiment: In vivo pharmacokinetic time profile in mice (plasma and brain)
Parameters: species or system mouse
Details: male, C57, plasma, 3 mg/kg; mouse, PO administration, dose 3 (mg/mg); read-out: T½ (converted)
QUANTITY KIND: half-life (h)

- COMPOUND: "Cc1cnc(CNC(=O)c2ccn(S(=O)(=O)c3ccc(F)cc3C)c2)cn1 [Compound 90]"
  QUANTITY KIND: "half-life"
  UNIT: "h"
  NUMERIC RESULT: 1

----------
Target: hKv3.1b (Homo sapiens)
Construct: expressed in transfected cells
Assay: Automated patch clamp (QPatch-16x) on HEK-293 cells stably expressing hKv3.1b
Format: cell-based
Details: concentration needed to shift the activation threshold 5 mV
QUANTITY KIND: ECdelta5 mV

- LINE NOTATION: "Cc1ccc(S(=O)(=O)n2ccc(C(=O)NCc3cc(F)ccn3)c2)cc1"
  RESULT: "1700 nM"
- LINE NOTATION: "Cc1ccc(S(=O)(=O)n2ccc(C(=O)NCc3ncc(C)cn3)c2)cc1"
  RESULT: "1600 nM"
- LINE NOTATION: "Cc1ccc(S(=O)(=O)n2ccc(C(=O)NCc3ccn(C)n3)c2)cc1"
  RESULT: "810 nM"
- LINE NOTATION: "Cc1cc(CNC(=O)c2ccn(S(=O)(=O)c3ccccc3)c2)on1"
  RESULT: "4600 nM"
- LINE NOTATION: "Cc1ccc(S(=O)(=O)n2ccc(C(=O)NCc3cnc(C)s3)c2)cc1"
  RESULT: "1600 nM"
- LINE NOTATION: "COc1ccc(CNC(=O)c2ccn(S(=O)(=O)c3ccc(C)cc3)c2)nc1"
  RESULT: "3500 nM"
- LINE NOTATION: "Cc1ccc(CNC(=O)c2ccn(S(=O)(=O)c3ccccc3C)c2)nc1"
  RESULT: "3300 nM"
- LINE NOTATION: "COc1ccc(S(=O)(=O)n2ccc(C(=O)NCc3cnc(C)cn3)c2)c(Cl)c1"
  RESULT: "1000 nM"
- LINE NOTATION: "COc1ccc(S(=O)(=O)n2ccc(C(=O)NCc3cnc(C)cn3)c2)c(F)c1"
  RESULT: "1300 nM"
- LINE NOTATION: "Cc1cnc(CNC(=O)c2ccn(S(=O)(=O)c3ccc(F)c(Cl)c3)c2)cn1"
  RESULT: "3400 nM"
- LINE NOTATION: "COc1ccc(S(=O)(=O)n2ccc(C(=O)NCc3ccn(C)n3)c2)c(Cl)c1"
  RESULT: "1500 nM"
- LINE NOTATION: "Cc1ccc(S(=O)(=O)n2ccc(C(=O)NCc3ncc(C)s3)c2)cc1"
  RESULT: "1600 nM"
- LINE NOTATION: "Cc1ccc(S(=O)(=O)n2ccc(C(=O)NCc3nccs3)c2)cc1"
  RESULT: "2400 nM"
- LINE NOTATION: "Cc1cnc(CNC(=O)c2ccn(S(=O)(=O)c3cccc(C)c3)c2)nc1"
  RESULT: "4900 nM"
- LINE NOTATION: "Cc1noc(CNC(=O)c2ccn(S(=O)(=O)c3ccc(F)cc3)c2)n1"
  RESULT: "4200 nM"
- LINE NOTATION: "Cc1ccc(S(=O)(=O)n2ccc(C(=O)NCc3ncccc3F)c2)cc1"
  RESULT: "1300 nM"
- LINE NOTATION: "Cc1ccc(S(=O)(=O)n2ccc(C(=O)NCc3cnc(C)cn3)c2F)cc1"
  RESULT: "2000 nM"
- LINE NOTATION: "Cc1cccc(S(=O)(=O)n2ccc(C(=O)NCc3nc(C)no3)c2)c1"
  RESULT: "5900 nM"
- LINE NOTATION: "Cc1cnc(CNC(=O)c2ccn(S(=O)(=O)c3ccccc3)c2)c(C)n1"
  RESULT: "2900 nM"
- LINE NOTATION: "COc1ccc(S(=O)(=O)n2ccc(C(=O)NCc3cnccn3)c2)cc1"
  RESULT: "2200 nM"
- LINE NOTATION: "Cc1noc(CNC(=O)c2ccn(S(=O)(=O)c3ccccc3C)c2)n1"
  RESULT: "3200 nM"
- LINE NOTATION: "Cn1ccc(CNC(=O)c2ccn(S(=O)(=O)c3ccc(F)cc3)c2)n1"
  RESULT: "2200 nM"
- LINE NOTATION: "COc1ccc(S(=O)(=O)n2ccc(C(=O)NCc3nc(C)no3)c2)cc1"
  RESULT: "2300 nM"
- LINE NOTATION: "Cc1cccc(S(=O)(=O)n2ccc(C(=O)NCc3cnc(C)cn3)c2)c1"
  RESULT: "2500 nM"
- LINE NOTATION: "COc1ncc(CNC(=O)c2ccn(S(=O)(=O)c3ccc(C)cc3F)c2)cn1"
  RESULT: "1300 nM"
- LINE NOTATION: "Cc1cnc(CNC(=O)c2ccn(S(=O)(=O)c3ccc(F)c(C)c3)c2)cn1"
  RESULT: "2000 nM"
- LINE NOTATION: "Cc1cnc(CNC(=O)c2ccn(S(=O)(=O)c3cccc(F)c3)c2)cn1"
  RESULT: "7800 nM"
- LINE NOTATION: "Cc1ccc(S(=O)(=O)n2ccc(C(=O)NCc3cc(C)ccn3)c2)cc1"
  RESULT: "3000 nM"
- LINE NOTATION: "Cc1cnc(CNC(=O)c2ccn(S(=O)(=O)c3cc(C)c(F)c(C)c3)c2)cn1"
  RESULT: "4300 nM"
- LINE NOTATION: "Cc1cnc(CNC(=O)c2ccn(S(=O)(=O)c3ccccc3C)c2)o1"
  RESULT: "2800 nM"
- LINE NOTATION: "Cc1ccc(S(=O)(=O)n2ccc(C(=O)NCc3cc(C)no3)c2)cc1"
  RESULT: "1100 nM"
- LINE NOTATION: "Cc1ccc(CNC(=O)c2ccn(S(=O)(=O)c3ccccc3)c2)nc1"
  RESULT: "5000 nM"
- LINE NOTATION: "Cc1ccc(S(=O)(=O)n2ccc(C(=O)NCc3ccc(C)nn3)c2)cc1"
  RESULT: "1100 nM"
- LINE NOTATION: "COc1ccc(S(=O)(=O)n2ccc(C(=O)NCc3cnn(C)c3)c2)cc1"
  RESULT: "3000 nM"
- LINE NOTATION: "Cc1ccc(S(=O)(=O)n2ccc(C(=O)NCc3cccc(C)n3)c2)cc1"
  RESULT: "1700 nM"
